This collection of values is drawn from patent US20210388087A1.

# tested.system: T1, Human CD137 ECD (human)
# T1 construct: also called 4-1BB
# T1 sequence (chain, as listed by the source limits assumed): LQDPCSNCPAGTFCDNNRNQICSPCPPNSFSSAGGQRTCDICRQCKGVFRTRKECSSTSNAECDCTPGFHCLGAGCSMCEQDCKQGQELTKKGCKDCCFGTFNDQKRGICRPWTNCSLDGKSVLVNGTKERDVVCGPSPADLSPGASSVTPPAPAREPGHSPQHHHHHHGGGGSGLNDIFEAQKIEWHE
# assay.procedure: single mutant vs template dBBDu183H
Each entry below lists one item and its recorded fold change of affinity value.
# output: bare number, implied unit fold

Some binders with recorded fold change of affinity:
# binder, fold change of affinity, fold
rows = [
    ("H183/L072 VH F27N (antibody, name in Kabat numbering, V domains shown) VH: QVQLVESGGGLVQPGRSLRLSCAASGNTFSNAWMHWVRQAPGKGLEWVAQIKDKGNAYAAYYAPSVKGRFTISRDDSKNSIYLQMNSLKTEDTAVYYCHYVHYASASTVLPAFGVDAWGQGTTVTVSS VL: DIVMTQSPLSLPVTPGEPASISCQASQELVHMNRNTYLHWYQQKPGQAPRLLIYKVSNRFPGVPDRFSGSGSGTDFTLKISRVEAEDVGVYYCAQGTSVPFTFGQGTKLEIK", 0.3),
    ("H183/L072 VH A57E (antibody, name in Kabat numbering, V domains shown) VH: QVQLVESGGGLVQPGRSLRLSCAASGFTFSNAWMHWVRQAPGKGLEWVAQIKDKGNAYAEYYAPSVKGRFTISRDDSKNSIYLQMNSLKTEDTAVYYCHYVHYASASTVLPAFGVDAWGQGTTVTVSS VL: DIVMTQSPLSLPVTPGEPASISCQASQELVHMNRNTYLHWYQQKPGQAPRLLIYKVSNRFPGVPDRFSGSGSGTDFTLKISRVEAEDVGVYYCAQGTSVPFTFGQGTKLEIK", 0.9),
]

Now for a further binder.
Problem: GET /values?readout=fold change of affinity&item= H183/L072 VH K52bY (antibody, name in Kabat numbering, V domains shown) VH: QVQLVESGGGLVQPGRSLRLSCAASGFTFSNAWMHWVRQAPGKGLEWVAQIKDYGNAYAAYYAPSVKGRFTISRDDSKNSIYLQMNSLKTEDTAVYYCHYVHYASASTVLPAFGVDAWGQGTTVTVSS VL: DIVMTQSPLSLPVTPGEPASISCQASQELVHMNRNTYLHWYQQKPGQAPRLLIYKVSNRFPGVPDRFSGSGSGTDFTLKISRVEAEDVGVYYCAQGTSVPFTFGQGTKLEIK
Solution: 1
